Test system: OVCAR-4
assay remarks: NCI tumour cell line growth inhibition, 48 h
The source made the active and inactive calls. Cut-off read from the data, not from the text of the source: active = GI50 up to about 1.1 µM and inactive = higher.
measurement type: GI50

[[record]]
compound = "O=C(Cc1nc2ccc(C(=O)c3ccccc3)cc2nc1O)C(=O)Nc1ccc(C(F)(F)F)cc1[N+](=O)[O-]"
measurement_type = "GI50"
val = "> 100 µM (inactive)"

[[record]]
compound = "OC(c1cc(-c2ccc(Cl)cc2)nc2ccccc12)C1CCCCN1 (centres undefined)"
measurement_type = "GI50"
val = "2.28 µM (inactive)"


State recorded GI50 for all listed compounds.
1. NCCC(=O)NC(Cc1c[nH]cn1)C(=O)O (centres undefined)
2. Cc1ccsc1/C=N/Nc1ccccn1

OUTPUT:
1. > 100 µM (inactive)
2. 76.2 µM (inactive)

----------
System: SNB-19
assay remarks: NCI tumour cell line growth inhibition, 48 h
Activity calls are given as the source filed them. No stated cut-off is given here; in the data, active = GI50 up to about 1.1 µM and inactive = higher.
Give measured GI50 for each item. Keep answers brief.

In the examples that follow, each entry is paired with its recorded GI50.
[[record]]
molecule = "O=c1[nH]cnc2cccc(Cl)c12"
measurement_type = "GI50"
val = "> 100 µM (inactive)"

[[record]]
molecule = "Cc1ccccc1C(=O)NC(O)(C(F)(F)F)C(F)(F)F"
measurement_type = "GI50"
val = "> 100 µM (inactive)"

[[record]]
molecule = "COC(=O)/C=C(\\S/C=C(/c1ccccc1)N1CCn2c(C(=O)c3ccccc3)c(C(=O)OC)c(C(=O)OC)c21)C(=O)OC"
measurement_type = "GI50"
val = "> 10 µM (inactive)"


State recorded GI50 for all listed molecules.
1. O=S1(=O)C[C@@H](O)[C@H](O)CS1
2. [O-][n+]1cn[n+]([O-])c2ccccc21
3. FC(F)(F)C12C34C=CC5(CCC6(C=CC1(CC3)O6)C52C(F)(F)F)O4 (stereo not given)
4. CCc1cccc(CC)c1NC(=O)C1=CNC(C)=C(C(=O)Nc2c(CC)cccc2CC)C1c1ccc(O)c(OC)c1 (stereo not given)
5. CC(=O)Oc1cc(Cl)c(OC(C)=O)c2c(OC(C)=O)c(C)c(O[Si](C)(C)C(C)(C)C)cc12
6. COc1cc(/C=C2\CC(C)C/C(=C\c3ccc(O)c(OC)c3)C2=O)ccc1O (stereo not given)
7. N#CCN(CC#N)C1CC=CCC1N(CC#N)CC#N (stereo not given)

OUTPUT:
1. > 100 µM (inactive)
2. 84.1 µM (inactive)
3. > 100 µM (inactive)
4. 54.1 µM (inactive)
5. 12.8 µM (inactive)
6. 10.2 µM (inactive)
7. > 100 µM (inactive)

----------
Tested on: Malme-3M
assay remarks: NCI tumour cell line growth inhibition, 48 h
The source made the active and inactive calls. Rule as the data show it: active = GI50 up to about 1.1 µM and inactive = higher.
The reply should name one outcome from active, inactive

Examples with answers:
[[record]]
molecule = "COc1ccc(-c2c3ccccc3c(-c3ccc(OCCCCCBr)cc3)c3ccccc23)cc1"
study_target = "Malme-3M"
assigned_category = "inactive"

[[record]]
molecule = "O=C1NC(=O)c2ccccc2/C1=C/c1ccc2c(c1)OCO2"
study_target = "Malme-3M"
assigned_category = "inactive"

[[record]]
molecule = "Clc1ccc(Cl)c2[s+]snc12"
study_target = "Malme-3M"
assigned_category = "inactive"


INPUT: Hello, I am checking results. What call was entered for "COc1cc(Oc2nc3cc(F)c(F)cc3nc2-c2ccccc2)cc(OC)c1OC" ?
OUTPUT: inactive

INPUT: Hello, I am checking results. What call was entered for "CCCC(=O)NC(Nc1ccc(S(=O)(=O)Nc2nc(C)cc(C)n2)cc1)(C(F)(F)F)C(F)(F)F" ?
OUTPUT: inactive

INPUT: Hello, I am checking results. What call was entered for OC(c1cc(-c2ccc(Cl)cc2)nc2ccccc12)C1CCCCN1 (stereo unspecified) ?
OUTPUT: active

----------
System: DMS-114
assay remarks: NCI tumour cell line growth inhibition, 48 h
Active and inactive are the calls of the source. Rule as the data show it: active = GI50 up to about 1.1 µM and inactive = higher.
measurement type: GI50

In the examples that follow, each entry is paired with its recorded GI50.
[[record]]
compound = "Nc1cc[nH]c(=O)n1"
study_target = "DMS-114"
measurement_type = "GI50"
val = "> 100 µM (inactive)"

[[record]]
compound = "COC(=O)C(=C\\Sc1ccccc1)/C=C/C(=O)OC(C)(C)C"
study_target = "DMS-114"
measurement_type = "GI50"
val = "11.2 µM (inactive)"

[[record]]
compound = "CC(C)(C)c1cc2c3c(c1)C(C(F)(F)F)(C(F)(F)F)O[Te]3(C)OC2(C(F)(F)F)C(F)(F)F"
study_target = "DMS-114"
measurement_type = "GI50"
val = "> 100 µM (inactive)"

[[record]]
compound = "Nc1ccn(C2CCC(CO)O2)c(=O)n1 (stereo not drawn)"
study_target = "DMS-114"
measurement_type = "GI50"
val = "> 100 µM (inactive)"

[[record]]
compound = "COc1ccc(-c2c3ccccc3c(-c3ccc(OCCCCCBr)cc3)c3ccccc23)cc1"
study_target = "DMS-114"
measurement_type = "GI50"
val = "> 100 µM (inactive)"

[[record]]
compound = "CCc1cccc(CC)c1NC(=O)C1=CNC(C)=C(C(=O)Nc2c(CC)cccc2CC)C1c1ccc(O)c(OC)c1 (stereo not drawn)"
study_target = "DMS-114"
measurement_type = "GI50"
val = "24.5 µM (inactive)"


State recorded GI50 for all listed compounds.
1. O=C(Cn1ccnc1[N+](=O)[O-])c1ccc(F)cc1
2. COC1(OC)CC2C(=O)N(Cc3ccccc3)C1C(S(=O)(=O)c1ccccc1)C2C(C)S(=O)(=O)c1ccccc1 (stereo not drawn)

OUTPUT:
1. > 100 µM (inactive)
2. 75.5 µM (inactive)

State recorded GI50 for all listed compounds.
1. Nc1ccc(-c2cc(C(=O)Nc3nccs3)nc(S)n2)cc1
2. COc1cccc(OC)c1C(=O)OCc1ccccc1
3. Nc1nc2c(ncn2C2CCC(CO)O2)c(=O)n1C(=O)c1ccccc1 (stereo not drawn)

OUTPUT:
1. > 100 µM (inactive)
2. > 100 µM (inactive)
3. > 100 µM (inactive)

State recorded GI50 for all listed compounds.
1. O=c1c2cccnc2ncn1CCN1CCCCC1
2. Cc1cc(C)nc(NS(=O)(=O)c2ccc(NC(=O)COC(=O)c3cccc4c(=O)c5ccccc5[nH]c34)cc2)n1
3. CCOC(=O)c1c(NNc2ccccc2)nc2ccccc2c1-c1ccccc1
4. CCOC(=O)CN.CCOC(=O)Nc1ccc(S(=O)(=O)OC)cc1.CCOC(=O)Nc1ccc(S(=O)(=O)OC)cc1

OUTPUT:
1: > 100 µM (inactive); 2: 56.5 µM (inactive); 3: 17.1 µM (inactive); 4: > 50 µM (inactive)

State recorded GI50 for all listed compounds.
1. C#CCOCn1cnc2c(Sc3c([N+](=O)[O-])ncn3C)ncnc21
2. CC(Oc1ccc(OCC2CCCCC2)cc1)C(=O)NCc1ccco1 (stereo not drawn)
3. CC(=O)OC1C/C(C)=C/[C@H](O)CC(C)/C=C/[C@@]2(C)CCC(C(C)(C)O)C12 (stereo partly drawn)

OUTPUT:
> 100 µM (inactive)
18.4 µM (inactive)
> 100 µM (inactive)

----------
Test system: Malme-3M
assay remarks: NCI tumour cell line growth inhibition, 48 h
Calls of active or inactive are those of the source. Rule as the data show it: active = GI50 up to about 1.1 µM and inactive = higher.
measurement type: GI50

[[record]]
compound = "Cc1c(/C=N/NS(=O)(=O)c2ccccc2)no[n+]1[O-]"
val = "> 100 µM (inactive)"


State recorded GI50 for all listed compounds.
1. C=C1C(=O)OC2CC1C(O)C/C(C)=C/CC/C(C)=C/C(O)CC2C (stereo unspecified)
2. Nc1nc(-c2ccccc2)c(Cl)c(-c2cc(Cl)ccc2O)n1
3. CCNc1nnc(CSc2nc(-c3ccccc3)c(-c3ccccc3)[nH]2)s1
4. CC(C)(C)OC(=O)NCC(C#N)CNC(=O)OC(C)(C)C
5. CCc1nc(N)nc(N)c1-c1ccc(N(C)Cc2ccccc2)c([N+](=O)[O-])c1
6. O=C1CC(c2c(-c3ccccc3)[nH]c3ccccc23)C(=O)N1 (stereo unspecified)
7. O=P(Oc1ccc(Cl)cc1)(Oc1ccc(Cl)cc1)N1CC1
8. CCCCc1ccc(Nc2nc3c(ncn3C3OC(COC(C)=O)C(OC(C)=O)C3OC(C)=O)c(=O)[nH]2)cc1 (stereo unspecified)

OUTPUT:
1. 2.37 µM (inactive)
2. > 77.1 µM (inactive)
3. 21.5 µM (inactive)
4. > 100 µM (inactive)
5. 2.22 µM (inactive)
6. > 100 µM (inactive)
7. > 10 µM (inactive)
8. 19.4 µM (inactive)

State recorded GI50 for all listed compounds.
1. Nc1ccn(C2CCC(CO)O2)c(=O)n1 (stereo unspecified)
2. Cc1ncc(CO)c(/C=N/CCCCCC/N=C/c2c(CO)cnc(C)c2[O-])c1[O-].[Mg+2]

OUTPUT:
1. > 100 µM (inactive)
2. > 100 µM (inactive)

----------
Test system: Hs-578T
assay remarks: NCI tumour cell line growth inhibition, 48 h
The source made the active and inactive calls. No stated cut-off is given here; in the data, active = GI50 up to about 1.1 µM and inactive = higher.
measurement type: GI50

[[record]]
compound = "CC(=O)Nc1ccc2[nH]c(C(=O)N3CC(CCl)c4c3cc(N)c3ccccc43)cc2c1 (stereo unspecified)"
val = "< 0.01 µM (active)"

[[record]]
compound = "O=c1[nH]cnc2cccc(Cl)c12"
val = "> 100 µM (inactive)"

[[record]]
compound = "NS(=O)(=O)c1ccc(NNc2c3ccccc3nc3ccccc23)cc1"
val = "14.5 µM (inactive)"

[[record]]
compound = "COC(=O)NC(C(F)(F)F)(C(F)(F)F)P1(=O)OCCCO1"
val = "37.4 µM (inactive)"

[[record]]
compound = "CNCCNc1ccc2c3c(nn2CCNCCO)-c2c(O)ccc(O)c2C(=O)c13"
val = "0.166 µM (active)"


Here's the next entry for you.
INPUT: # query: GI50 | item "[O-][n+]1cn[n+]([O-])c2ccccc21" | system: Hs-578T
OUTPUT: 57.1 µM (inactive)

Data provenance: ChEMBL document CHEMBL1201862
